All figures here come from patent US8921376B2.

- target_system: JAK3 (Homo sapiens, UniProt P52333)
- experiment_description: JAK3 inhibition assay (33P incorporation into poly(Glu)4Tyr)
- Assay type: biochemical
- setup_conditions: Table 6; enzyme inhibition data (Ki)
pKi: −log10 of the molar value.
measured_endpoint: pKi

compound	pKi
N#CCCN(Cc1cccnc1)C(=O)c1cc(-c2c(Cl)cnc3[nH]ccc23)c[nH]1 [compound 331]	> 6.30
O=C(NCC(F)(F)F)[C@H]1CCCCN1c1ccnc(-c2ccnc3[nH]ccc23)n1 [compound 215]	> 6.30

Please look at the following compound next.
Record request: pKi value, item CC(C)NC(=O)c1cc(-c2c(Cl)cnc3[nH]ccc23)c[nH]1 [compound 280]
> 6.30

----------
- target_system: JAK2 (Homo sapiens, UniProt O60674)
- Sequence (O60674 whole entry): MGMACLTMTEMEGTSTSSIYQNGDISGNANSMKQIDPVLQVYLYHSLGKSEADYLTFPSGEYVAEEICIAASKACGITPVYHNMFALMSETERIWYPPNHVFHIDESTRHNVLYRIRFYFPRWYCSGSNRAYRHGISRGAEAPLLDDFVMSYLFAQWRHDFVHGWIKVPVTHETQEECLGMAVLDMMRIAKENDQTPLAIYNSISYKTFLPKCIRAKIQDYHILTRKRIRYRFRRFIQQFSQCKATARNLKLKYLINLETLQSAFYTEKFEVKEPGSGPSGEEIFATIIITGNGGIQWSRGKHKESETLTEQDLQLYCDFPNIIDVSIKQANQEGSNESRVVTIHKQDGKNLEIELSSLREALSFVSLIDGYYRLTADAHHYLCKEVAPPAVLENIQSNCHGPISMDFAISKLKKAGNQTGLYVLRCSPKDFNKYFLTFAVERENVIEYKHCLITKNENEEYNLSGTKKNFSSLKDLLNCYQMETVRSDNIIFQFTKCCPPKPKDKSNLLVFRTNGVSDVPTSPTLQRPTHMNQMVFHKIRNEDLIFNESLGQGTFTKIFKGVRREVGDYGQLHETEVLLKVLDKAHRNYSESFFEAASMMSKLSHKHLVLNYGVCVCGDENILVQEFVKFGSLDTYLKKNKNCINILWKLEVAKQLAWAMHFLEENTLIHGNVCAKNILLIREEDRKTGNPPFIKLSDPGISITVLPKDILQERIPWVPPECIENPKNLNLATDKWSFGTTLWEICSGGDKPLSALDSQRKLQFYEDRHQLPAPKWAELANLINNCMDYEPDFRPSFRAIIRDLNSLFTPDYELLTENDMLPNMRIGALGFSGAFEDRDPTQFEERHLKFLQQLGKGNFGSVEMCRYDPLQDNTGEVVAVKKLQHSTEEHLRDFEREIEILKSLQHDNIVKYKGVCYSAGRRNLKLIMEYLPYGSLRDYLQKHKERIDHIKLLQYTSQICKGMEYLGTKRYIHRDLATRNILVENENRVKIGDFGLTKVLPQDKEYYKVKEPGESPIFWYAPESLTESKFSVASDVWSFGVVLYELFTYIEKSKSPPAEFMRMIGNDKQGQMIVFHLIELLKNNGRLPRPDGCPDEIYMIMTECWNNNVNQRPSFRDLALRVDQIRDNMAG
- experiment_description: JAK2 inhibition assay (as Example 3 with JAK-2 enzyme)
- Type: biochemical
- setup_conditions: Table 6; enzyme inhibition data (Ki)
In this section we review reported Ki values for a set of compounds.

Guide cases for Ki, answers given:
compound	Ki
Cc1noc(C)c1-c1c(Cl)cnc2[nH]ccc12	> 5000 nM
Cc1ccc(-c2ccnc3[nH]ccc23)c(C)c1	> 5000 nM
C=CCN(CC=C)C(=O)c1ccc(-c2ccnc3[nH]ccc23)s1	< 500 nM
C=CCN(C(=O)c1cc(-c2c(F)cnc3[nH]ccc23)c[nH]1)C(C)c1ccccc1 (centres unmarked)	< 500 nM
O=C(c1cc(-c2c(Cl)cnc3[nH]ccc23)c[nH]1)N1CCC(O)C1 (centres unmarked)	< 500 nM

Record request: Ki value, item `O=C(NCCC(F)(F)F)c1cc(-c2ccnc3[nH]ccc23)c[nH]1`
< 500 nM

Okay, and `CCCCN(CC#N)C(=O)c1cc(-c2c(Cl)cnc3[nH]ccc23)c[nH]1` ?
< 500 nM

Okay, and `FC(F)(F)Oc1ccccc1-c1ccnc2[nH]ccc12` ?
500 to 5000 nM

Okay, and `CCCOC(=O)N1CC[C@H](Nc2c(Cl)cnc3[nH]ccc23)C1` ?
< 500 nM

Okay, and `CCCN(CCC#N)C(=O)c1cc(-c2c(F)cnc3[nH]ccc23)c[nH]1` ?
< 500 nM

Okay, and `CCc1ccccc1-c1ccnc2[nH]ccc12` ?
500 to 5000 nM

Okay, and `CCC(=O)Nc1cccc(Nc2c(Cl)cnc3[nH]ccc23)c1` ?
< 500 nM

Okay, and `N#CCCN(Cc1ccccc1)C(=O)c1cc(-c2c(F)cnc3[nH]ccc23)c[nH]1` ?
< 500 nM

Okay, and `O=C(O)c1ccccc1-c1ccnc2[nH]ccc12` ?
> 5000 nM

----------
In this section we review reported pKi values for a set of molecules.
- target_system: ROCK I (Homo sapiens, UniProt Q13464)
- Sequence (Q13464 whole entry): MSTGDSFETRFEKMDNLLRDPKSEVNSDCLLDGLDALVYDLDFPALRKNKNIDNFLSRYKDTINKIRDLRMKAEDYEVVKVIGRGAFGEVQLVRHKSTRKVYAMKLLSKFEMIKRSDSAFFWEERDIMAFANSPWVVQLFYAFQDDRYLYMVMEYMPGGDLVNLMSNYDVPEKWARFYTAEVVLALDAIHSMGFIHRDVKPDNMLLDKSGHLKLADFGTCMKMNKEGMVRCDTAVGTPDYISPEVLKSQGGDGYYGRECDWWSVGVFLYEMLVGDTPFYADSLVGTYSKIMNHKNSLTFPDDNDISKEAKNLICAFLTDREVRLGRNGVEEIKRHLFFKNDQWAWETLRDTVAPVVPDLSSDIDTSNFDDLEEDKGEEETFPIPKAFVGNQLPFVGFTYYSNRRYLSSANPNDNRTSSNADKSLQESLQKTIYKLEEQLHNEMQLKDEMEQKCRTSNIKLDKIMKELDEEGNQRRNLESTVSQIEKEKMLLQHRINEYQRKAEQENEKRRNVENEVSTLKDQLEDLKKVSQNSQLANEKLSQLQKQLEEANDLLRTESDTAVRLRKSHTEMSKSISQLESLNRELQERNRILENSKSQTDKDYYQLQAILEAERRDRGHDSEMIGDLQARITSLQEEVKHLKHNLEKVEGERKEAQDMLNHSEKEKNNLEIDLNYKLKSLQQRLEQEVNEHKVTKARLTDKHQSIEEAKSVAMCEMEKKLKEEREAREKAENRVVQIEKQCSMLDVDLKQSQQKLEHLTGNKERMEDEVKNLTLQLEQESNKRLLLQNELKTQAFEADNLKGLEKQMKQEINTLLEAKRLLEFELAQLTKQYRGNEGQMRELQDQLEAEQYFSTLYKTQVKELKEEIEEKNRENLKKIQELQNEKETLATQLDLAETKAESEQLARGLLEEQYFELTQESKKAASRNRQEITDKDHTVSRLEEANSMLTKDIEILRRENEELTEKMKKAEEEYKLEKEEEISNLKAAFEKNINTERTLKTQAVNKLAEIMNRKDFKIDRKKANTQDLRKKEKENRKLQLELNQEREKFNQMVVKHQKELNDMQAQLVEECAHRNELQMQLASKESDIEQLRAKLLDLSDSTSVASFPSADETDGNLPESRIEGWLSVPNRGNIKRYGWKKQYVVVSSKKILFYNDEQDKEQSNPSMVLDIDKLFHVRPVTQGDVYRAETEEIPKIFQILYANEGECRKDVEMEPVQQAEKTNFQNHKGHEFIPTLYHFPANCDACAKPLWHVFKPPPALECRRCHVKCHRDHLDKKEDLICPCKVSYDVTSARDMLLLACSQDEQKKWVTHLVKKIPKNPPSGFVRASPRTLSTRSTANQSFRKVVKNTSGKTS
- experiment_description: ROCK-I inhibition assay (radioactive enzyme assay, MBP substrate)
- Format: biochemical
- setup_conditions: Table 6; enzyme inhibition data (Ki)
pKi: −log10 of the molar value.

Guide cases for pKi, answers given:
molecule	pKi
Cc1noc(C)c1-c1c(Cl)cnc2[nH]ccc12 [compound 146]	< 5.40
O=C(NCC1CC1)c1csc(-c2ccnc3[nH]ccc23)n1 [compound 412]	5.30 to 6.30
CC1CCCCC1Nc1c(Cl)cnc2[nH]ccc12 (centres unmarked) [compound 153]	5.30 to 6.30
CCCNC(=O)c1cc(-c2ccnc3[nH]ccc23)c[nH]1 [compound 283]	> 6.30
COC(=O)N1CC[C@H](Nc2c(Cl)cnc3[nH]ccc23)C1 [compound 166]	< 5.40

Please look at the following molecule next.
Record request: pKi value, item CCN(CCO)C(=O)c1cc(-c2c(Cl)cnc3[nH]ccc23)c[nH]1 [compound 345]
5.30 to 6.30

----------
- target_system: UniProt:P52333
- experiment_description: JAK3 inhibition assay (33P incorporation into poly(Glu)4Tyr)
- Format: biochemical
- setup_conditions: Table 6; enzyme inhibition data (Ki)
pKi: −log10 of the molar value.
measured_endpoint: pKi

Guide cases for pKi, answers given:
molecule	target_system	result
N#CCCN(Cc1cccnc1)C(=O)c1ccc(-c2ccnc3[nH]ccc23)s1 [compound 316]	UniProt:P52333	> 6.30
Clc1cnc2[nH]ccc2c1-c1cc2ccccc2s1 [compound 137]	UniProt:P52333	> 6.30

Record request: pKi value, item CCN(CC)C(=O)c1cc(-c2ccnc3[nH]ccc23)c[nH]1 [compound 262]
> 6.30

----------
- target_system: JAK2 (Homo sapiens)
- experiment_description: JAK2 inhibition assay (as Example 3 with JAK-2 enzyme)
- Type: biochemical
- setup_conditions: Table 6; enzyme inhibition data (Ki)
- Description: Compounds were screened for their ability to inhibit JAK using the assay shown below. Reactions were carried out in a kinase buffer containing 100 mM HEPES (pH 7.4), 1 mM DTT, 10 mM MgCl2, 25 mM NaCl, and 0.01% BSA. […] To each well of a 96 well polycarbonate plate was added 1.5 μl of a candidate JAK3 inhibitor along with 50/1 of kinase buffer containing 2 μM poly(Glu)4Tyr and 10 μM ATP. […] After washing, 60 μl of scintillation fluid was added and ^33P incorporation detected on a Perkin Elmer TopCount. […]
pKi: −log10 of the molar value.
measured_endpoint: pKi

molecule	measured_endpoint	result
CCN(CCC#N)C(=O)c1cc(-c2ccnc3[nH]ccc23)c[nH]1	pKi	> 6.30
NC(=O)c1ccccc1-c1ccnc2[nH]ccc12	pKi	< 5.30
CC1CC[C@@H](C)N1C(=O)c1csc(-c2ccnc3[nH]ccc23)n1 (some centres unmarked)	pKi	> 6.30

Record request: pKi value, item `Fc1ccc(-c2ccnc3[nH]ccc23)c(F)c1`
5.30 to 6.30

Okay, and CS(=O)(=O)N1CCCC(Nc2c(Cl)cnc3[nH]ccc23)C1 (centres unmarked) ?
> 6.30

Okay, and `CC(C)CN(CC(C)C)C(=O)c1cc(-c2ccnc3[nH]ccc23)c[nH]1` ?
> 6.30

Okay, and `CNc1ccccc1-c1ccnc2[nH]ccc12` ?
5.30 to 6.30

Okay, and `CCC(CC)NC(=O)c1cc(-c2ccnc3[nH]ccc23)c[nH]1` ?
> 6.30

Okay, and O=S(=O)(C1CC1)N1CCCC(Nc2c(Cl)cnc3[nH]ccc23)C1 (centres unmarked) ?
> 6.30

Okay, and `CCCN(CCC)C(=O)c1cc(-c2c(Cl)cnc3[nH]ccc23)c[nH]1` ?
> 6.30

----------
- target_system: JAK3 (Homo sapiens, UniProt P52333)
- Sequence (P52333 1-1124): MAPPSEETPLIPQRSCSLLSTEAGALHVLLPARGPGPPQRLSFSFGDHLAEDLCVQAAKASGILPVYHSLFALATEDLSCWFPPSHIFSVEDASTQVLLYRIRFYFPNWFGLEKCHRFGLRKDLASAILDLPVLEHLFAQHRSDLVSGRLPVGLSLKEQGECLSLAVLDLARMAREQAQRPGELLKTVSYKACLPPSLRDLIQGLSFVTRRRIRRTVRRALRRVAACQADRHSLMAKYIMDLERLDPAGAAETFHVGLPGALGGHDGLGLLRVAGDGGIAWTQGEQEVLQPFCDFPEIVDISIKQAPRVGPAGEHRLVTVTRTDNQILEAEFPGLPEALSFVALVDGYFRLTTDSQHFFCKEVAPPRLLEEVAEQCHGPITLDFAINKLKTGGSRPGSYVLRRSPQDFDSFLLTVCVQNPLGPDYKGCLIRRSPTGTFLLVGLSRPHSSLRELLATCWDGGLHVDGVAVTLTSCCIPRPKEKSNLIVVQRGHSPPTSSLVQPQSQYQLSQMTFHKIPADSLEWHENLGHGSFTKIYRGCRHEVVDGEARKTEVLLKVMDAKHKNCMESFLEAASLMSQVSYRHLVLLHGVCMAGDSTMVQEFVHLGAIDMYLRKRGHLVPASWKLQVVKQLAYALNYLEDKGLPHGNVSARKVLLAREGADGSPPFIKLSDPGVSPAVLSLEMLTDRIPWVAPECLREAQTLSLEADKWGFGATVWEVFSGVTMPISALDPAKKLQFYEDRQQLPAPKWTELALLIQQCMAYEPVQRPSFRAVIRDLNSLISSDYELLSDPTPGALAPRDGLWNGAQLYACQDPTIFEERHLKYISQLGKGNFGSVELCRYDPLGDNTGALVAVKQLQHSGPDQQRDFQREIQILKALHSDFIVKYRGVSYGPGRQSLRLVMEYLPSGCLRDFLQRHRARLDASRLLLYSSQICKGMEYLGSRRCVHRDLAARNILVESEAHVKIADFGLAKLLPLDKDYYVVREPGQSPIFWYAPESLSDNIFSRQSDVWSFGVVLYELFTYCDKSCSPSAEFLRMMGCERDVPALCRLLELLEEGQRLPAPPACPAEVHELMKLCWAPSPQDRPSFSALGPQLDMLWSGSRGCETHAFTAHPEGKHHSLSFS
- experiment_description: JAK3 inhibition assay (33P incorporation into poly(Glu)4Tyr)
- Assay type: biochemical
- setup_conditions: Table 6; enzyme inhibition data (Ki)
- Experimental: Compounds were screened for their ability to inhibit JAK using the assay shown below. Reactions were carried out in a kinase buffer containing 100 mM HEPES (pH 7.4), 1 mM DTT, 10 mM MgCl2, 25 mM NaCl, and 0.01% BSA. […] To each well of a 96 well polycarbonate plate was added 1.5 μl of a candidate JAK3 inhibitor along with 50/1 of kinase buffer containing 2 μM poly(Glu)4Tyr and 10 μM ATP. […] After washing, 60 μl of scintillation fluid was added and ^33P incorporation detected on a Perkin Elmer TopCount.
measured_endpoint: Ki

compound	target_system	Ki
CCCCN(CC#N)C(=O)c1ccc(-c2ccnc3[nH]ccc23)s1	JAK3 (Homo sapiens, UniProt P52333)	< 500 nM

Lab note: need Ki for O=C(c1cc(-c2ccnc3[nH]ccc23)c[nH]1)N1CCCC1C(F)(F)F (centres unmarked) on JAK3 (Homo sapiens, UniProt P52333), anyone have it?
< 500 nM

Okay, and `CSc1ccccc1-c1ccnc2[nH]ccc12` ?
500 to 5000 nM
